Assay: inhibitors of Chlamydomonas gravitaxis, primary screen, whole organism, Chlamydomonas reinhardtii, WT vs cilia-less mutant, absorbance, 96-well (AID 463189);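 further: 0% = wild type cc124 cells in DMSO and 100% = ciliumless bld1 mutant cells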
Conditions: OD600 absorbance, 2 days, at 10 µM
Calls of active or inactive are those of the source.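 How the source made its calls: active means inhibition at or above 50% relative to wild type and mutant plate controls; inactive means inhibition below 50%.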
// classify into y (active), n (inactive)

// known answers, use as guide
Cc1nnc(C)n1/N=C/c1cc(Br)cc(Br)c1O | n
CC(C(=O)N1CCOCC1)N1C(=O)c2ccccc2C1=O (stereo not drawn) | n
Cn1cc(NC(=O)c2cc(NC(=O)c3cc(NC=O)cn3C)cn2C)cc1C(=O)NCCC(=N)N | n
O=C(OCCCN1CCCC1)C1(c2ccccc2)CCCC1 | y
N#C/C(=C\N1CCN(Cc2ccc3c(c2)OCO3)CC1)c1nc2ccccc2s1 | y
CCN1CCN(c2cc3c(cc2F)c(=O)c(C(=O)O)cn3C2CC2)CC1 | n

In this assay, the call recorded for O=C(C1CC1(c1ccccc1)c1ccccc1)N1CCOCC1 (stereo not drawn) was what?
n

Moving on to COn1c(=S)[nH]c2ccccc2c1=O
n

* * *

Biological target: Voltage-gated potassium channel subunit beta-2 (Rattus norvegicus) (UniProt P62483)
Sequence (P62483 whole entry, looked up): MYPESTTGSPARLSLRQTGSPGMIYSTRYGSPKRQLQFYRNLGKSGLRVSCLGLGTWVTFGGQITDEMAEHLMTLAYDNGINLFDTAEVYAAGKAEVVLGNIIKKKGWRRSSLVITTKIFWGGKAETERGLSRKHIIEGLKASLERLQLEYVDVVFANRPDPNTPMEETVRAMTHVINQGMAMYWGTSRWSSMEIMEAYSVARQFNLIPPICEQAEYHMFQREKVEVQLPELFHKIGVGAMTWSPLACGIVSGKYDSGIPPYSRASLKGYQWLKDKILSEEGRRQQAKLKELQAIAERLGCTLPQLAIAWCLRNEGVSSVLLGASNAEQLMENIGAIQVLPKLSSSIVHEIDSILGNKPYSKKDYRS
Assay: KvBeta enzyme negative modulators, primary screen, biochemical, NADPH fluorescence (AID 622);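 further: slope of raw intensity against log time taken from 70 to 1610 s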
Settings: recombinant KvBeta, 4-cyanobenzaldehyde reduction, at 10 µM, stronger effect = higher value
Respond with Met for fluorescence slope values of -0.5 and above, Not met for values below.

// known answers, use as guide
CC1(C)Cc2nc(NCCCO)c(C#N)cc2CO1 | Met
O=C(NC1CCCCC1)Nn1c(-c2ccccc2)nc2ccccc2c1=O | Met
Cc1cc(C)nc(N(C#N)S(=O)(=O)c2ccccc2Cl)n1 | Met
CC(C)c1nc2n[nH]c(N)c2c2c1CCC2 | Met

Now turn to the next compound.
Determine whether measured fluorescence slope meets or exceeds -0.5 for Cc1ccc(C2/C(=C(/O)c3ccc(OC(C)C)cc3)C(=O)C(=O)N2CCN2CCOCC2)cc1 (configuration not stated)
Met

* * *

Assay: inhibitors of Chlamydomonas gravitaxis, primary screen, whole organism, Chlamydomonas reinhardtii, WT vs cilia-less mutant, absorbance, 96-well (AID 463189);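 further: 0% = wild type cc124 cells in DMSO and 100% = ciliumless bld1 mutant cells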
Conditions: OD600 absorbance, 2 days, at 10 µM
The source made the active and inactive calls.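 The calls were made as follows: active = inhibition at or above 50% relative to wild type and mutant plate controls; inactive = inhibition below 50%.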
// classify into active, inactive

// known answers, use as guide
COc1cc(C2C3C(=O)N(c4ccc(F)cc4)C(=O)C3ON2c2ccccc2)ccc1O (configuration not stated) | inactive
COc1ccc2oc(=O)c(-c3nc(C)cs3)cc2c1 | inactive
COc1ccc(C=NCCCN2CCOCC2)cc1 | inactive
ONC(=Nc1ccccc1)C(=Nc1ccccc1)NO | inactive
CC(=O)N1CCN(c2nc(CC(C)C)c3c(c2C#N)CCC3)CC1 | inactive

In this assay, the call recorded for Cc1ccsc1C1NC(=O)c2c(sc3c2CCCC3)N1 (configuration not stated) was what?
inactive

Moving on to CCN(CC)CCNc1nc2c(c(=O)[nH]c(=O)n2C)n1CCOc1ccccc1
inactive

Moving on to c1cc2c(cc1C1=Nn3c(nnc3C3CCCCC3)SC1)OCO2
inactive

Moving on to C=CCOc1nc2c(c(=O)n(C)c(=O)n2C)n1Cc1ccc(Cl)cc1
inactive

Moving on to CN(C)C=C1C(=O)c2ccccc2C1=O
active

Moving on to COc1ccc(C2C=C(c3ccc(Cl)cc3)Nc3nc(NC(C)=O)nn32)cc1 (configuration not stated)
inactive

Moving on to OCCNc1nc(-c2ccccc2)c2ccccc2n1
inactive

* * *

Assay: inhibitors of TNFa-induced NFkB p65 translocation, primary screen, imaging, HUVEC, MLSMR starter and 10KST1 sets (AID 438);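 further: compound added about 3h40 before a 20 min TNFalpha stimulation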
Settings: HUVEC TNFa-induced p65 nuclear translocation; measured here: nuclei count (cytotoxicity indicator), at 2.08 µM
Parameter cell count: see the listing below.

Guide cases for cell count, answers given:
CC(C)(C)c1ccc(C(O)CCCN2CCC(C(O)(c3ccccc3)c3ccccc3)CC2)cc1 (centres undefined) | 520
N#CCCN(CCC#N)c1nnc(-c2ccccc2)s1 | 391
COc1cc(C2CC(C(F)(F)F)n3ncc(C(=O)O)c3N2)cc(OC)c1OC (centres undefined) | 515
CC1(C)SC2[C@H](NC(=O)C(NC(=O)N3CCNC3=O)c3ccccc3)C(=O)N2C1C(=O)O (some centres undefined) | 705
CSC1=C(C#N)C(C)CC(=O)N1 (centres undefined) | 552

# get_value(readout='cell count', item= COc1ccc(OCC(=O)N2CCN(C(=O)c3cccc4ccccc34)CC2)cc1 )
413

Moving on to CCCOc1ccc(C(C)=O)cc1CSCCC#N
298

Moving on to O=c1cc(NCc2ccccc2)nc2n1CCCS2
572

Moving on to O=C(O)CC(C(=O)OCC1CCCO1)N1CCOCC1 (centres undefined)
526

Moving on to CCCCOc1ccc(C(=O)OC2CC(C)N(C)CC2C)cc1 (centres undefined)
358

Moving on to c1coc(CNc2ncnc3ccccc23)c1
553

Moving on to CC(C)OC(=O)C(CC(=O)O)NCc1ccccc1 (centres undefined)
518

Moving on to CCOC(=O)c1c(C)n(C)c2ccc(OC)c(NC(=O)CN3CCSCC3)c12
331

Moving on to Cc1cc(C)c(NC(=O)OCCN2CCOCC2)c(C)c1
581

Moving on to Cc1nc2oc(C(=O)c3ccc(Br)cc3)c(N)c2c2c1COC(C)(C)C2
643

Moving on to N#CC12CCCCC1CC1CCCCC1(C#N)N2Cc1ccccn1 (centres undefined)
372

Moving on to COC(=O)CN(c1nc(C)c(Cl)c(OC)n1)S(=O)(=O)c1ccc(C)cc1
706

Moving on to CC(C)c1cc(NCCN2CCOCC2)n2c(nc3ccccc32)c1C#N
530

Moving on to CNC(=O)C1CC(=O)N(Cc2ccccc2)C(=Nc2ccc(OC)cc2)S1 (centres undefined)
491

Moving on to Cc1occc(=O)c1OC(=O)Nc1ccccc1
477

Moving on to CCOC(=O)c1c(-c2cccs2)csc1NC(=O)CCCC(=O)O
550

Moving on to COc1ccc(CCNC2CC(C)N(C)CC2C)cc1OC (centres undefined)
549

Moving on to CCOC(=O)c1cc2c(=O)n3ccccc3nc2n(Cc2ccccc2Cl)c1=N
339

* * *

Experiment: DUSP6 inhibitors restoring Erk phosphorylation by chemical complementation, primary imaging in DUSP6-transfected HeLa (AID 609)
Settings: HeLa MKP-3 transfected, phospho-Erk imaging KS statistic; measured here: cell density z-score; at 10 µM; cells stimulated with TPA for 15 min
measured.quantity: z-score
Would you mind answering with just the numeric figure?

CCOC(=O)C1CCN(c2nc3ccccc3nc2C(C#N)C(=O)OC(C)C)CC1 (stereo unspecified) | -0.0557
COc1ccc(OC)c(C2C(C#N)=C(N)Oc3cc(C)[nH]c(=O)c32)c1 (stereo unspecified) | -0.908
CN1CCc2nc(SCC(=O)Nc3ccc(Cl)cc3)c(C#N)cc2C1 | 1.95

Now let's try a different one.
# get_value(readout='z-score', item= COc1ccc(OC)c2c1CCC2=O )
-0.357

* * *

Assay: inhibitors of larval lipid processing in zebrafish, primary screen, whole organism, PED6 fluorescence, gall bladder and intestine (AID 686);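 further: larvae 5 to 7 days old with five fish per well; signal comes from phospholipase A2 cleavage of quenched PED6 carried via bile; overnight exposure to compound and PED6 before scoring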
Details: Zebrafish larvae PED6 lipid processing, fluorescence scoring; screened at 20 µM (by protocol)
Activity calls are given as the source filed them.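 The calls were made as follows: active = a full or partial loss of lipid-probe fluorescence in the fish gall bladder, intestine or both, judged by eye; inactive = no fluorescence loss, or compound toxic to the fish.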
// classify into t (active), f (inactive)

// known answers, use as guide
C[C@@H]1C[C@H]2[C@@H]3C[C@H](F)C4=CC(=O)C=C[C@]4(C)[C@@]3(F)[C@@H](O)C[C@]2(C)[C@@]1(O)C(=O)COC(=O)C(C)(C)C | f
O=C(NCc1ccco1)c1ccc(=O)oc1 | f
CC1(C)Cc2c(sc3c2C(=O)N(c2ccccc2)C2=NCCCN23)CO1 | f

In this assay, the call recorded for CC(C)CC(=O)Nc1ncnc2c1C(=O)CC(C)(C)C2 was what?
f

* * *

Target: Voltage-gated potassium channel subunit beta-2 (Rattus norvegicus) (UniProt P62483)
Assay: KvBeta enzyme negative modulators, primary screen, biochemical, NADPH fluorescence (AID 622);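 further: slope of raw intensity against log time taken from 70 to 1610 s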
Conditions: recombinant KvBeta, 4-cyanobenzaldehyde reduction, at 10 µM, stronger effect = higher value
Respond with True for fluorescence slope values of -0.5 and above, False for values below.

// known answers, use as guide
Oc1c(I)cc(I)c2cccnc12 | True
COc1ccc(-c2cn3ccsc3n2)cc1 | True
CC1CN(C2CCN(C(=O)c3ccccc3Cl)CC2)CC(C)O1 (stereo not drawn) | True

Determine whether measured fluorescence slope meets or exceeds -0.5 for O=c1c(F)cn(C2CCCO2)c(=O)n1Cc1ccccc1Cl (stereo not drawn)
False

Moving on to CC(=O)NCCCCCCNC(C)=O
True

Moving on to CC(=O)OC(C)C[N+](C)(C)C (stereo not drawn)
True

Moving on to COC(=O)CN(c1nc(C)c(Br)c(OC)n1)S(=O)(=O)c1ccc(C)cc1
True

Moving on to Fc1ccccc1/C=N/n1cnnc1
True

Moving on to Cc1nc2sc3c(NCc4ccco4)ncnc3c2c2c1COC(C)(C)C2
True

Moving on to Nc1nnc(-c2cccc(Cl)c2Cl)c(N)n1
False

Values were extracted from PubChem BioAssay.
